- Tested on: UACC-62 melanoma
- test_method_notes: NCI-60 one-dose screen, 48 h
- reported_conditions: 10 µM unless noted
This is part of a sample that, as a whole, favours compounds with a hit. Of some 83,000 tested, about 20% had one in any assay. The source made the active and inactive calls. How the source made its calls: active means growth percent below 10; inactive means the rest.
Entry note: the call must match one of 1 (yes) (active), 0 (no) (inactive)

A selection of reference data follows.
1) CNC(=O)c1cc(Oc2ccc3nc(NC(=O)Nc4cc(C(F)(F)F)cc(C(F)(F)F)c4)sc3c2)ccn1	1 (yes)
2) CCOC(=O)C(O)C(O)(c1ccccc1)c1ccccc1 (centres undefined)	0 (no)
3) CCc1cc(Cc2cc(CC)cc(C(C)(C)C)c2O)c(O)c(C(C)(C)C)c1	0 (no)
4) O=C1N/C(=N/O)S/C1=C/c1cn(-c2ccccc2)nc1-c1ccccc1	0 (no)
5) COc1cccc(CCC2CCCN(c3cc(C)nc(N)n3)C2)c1 (centres undefined)	0 (no)

Query: Which outcome was assigned to COc1cc(C(=O)/C=C/c2c(C(F)(F)F)nc3ccccn23)cc(OC)c1OC in this test?
Response: 1 (yes)

Query: // return assay outcome for COc1cc2c(=O)n(CCCn3ccnc3)c3c4cc5c(cc4ccc3c2cc1OC)OCO5
Response: 1 (yes)

Query: Hi, do you know how COc1ccc(C2CC(c3ccc4ccccc4c3)=NN2c2nc(O)c(C3=c4cc(Cl)ccc4=NC3=O)s2)cc1 (centres undefined) came out in this test?
Response: 1 (yes)

Query: I would be grateful if you could indicate the recorded call for Cc1c(C(=O)O)nnn1-c1nccs1 .
Response: 0 (no)

Query: For O=C1CCC(N2C(=O)c3cccc(NCCCC4CCN(CCNC(=O)c5cc6c(o5)C(=O)c5ccccc5C6=O)CC4)c3C2=O)C(=O)N1 (centres undefined) , which call appears in the assay record?
Response: 1 (yes)

Query: Hello, I am checking results. What call was entered for Clc1ccc2c(NCCCN3CCN(c4nc(N5CCOCC5)nc5ccccc45)CC3)ccnc2c1 ?
Response: 1 (yes)

Query: What is the recorded call for this molecule in the test? Fc1ccc(Nc2ccc3cc(OCCCN4CCOCC4)ccc3n2)cc1F
Response: 1 (yes)

Query: Status in this test for CCOC(=O)c1ccc(-c2ccc3cc(OC)ccc3c2)nc1C ?
Response: 0 (no)

Query: Tell me the recorded outcome of this test for O=C(O)C1C[C@](O)(c2ccc(F)cc2)[C@@H](c2ccc(F)cc2)O1 (some centres undefined) .
Response: 0 (no)

Query: # outcome recorded in this test, key = CCCCCCN(CCCCCC)CC(O)c1cccc2ccc(Cl)cc12 (centres undefined)
Response: 0 (no)

Query: Lab log entry: CC[C@]1(O)C[C@H]2CN(CCc3c([nH]c4ccccc34)[C@@](C(=O)OC)(c3cc4c(cc3OC)N(C=O)[C@H]3[C@@](O)(C(=O)OC)[C@H](OC(C)=O)[C@]5(CC)C=CCN6CC[C@]43[C@@H]65)C2)C1 — outcome as called in the assay?
Response: 0 (no)

Query: Status in this test for Nc1nc(I)c2ncn(C3OC(CO)C(O)C3O)c2n1 (centres undefined) ?
Response: 0 (no)

Query: Tell me the assay call for C=C(Cl)COC(=O)C(C)(C)O please.
Response: 0 (no)

Query: What was the test verdict on Cn1cc(-c2ccc3nc(-c4ccc(CC(=O)Nc5cc(C(C)(C)C)no5)cc4)cnc3c2)cn1 ?
Response: 1 (yes)

Query: Each molecule tested received a call. Report the one for COc1cc2cc(Oc3ccc(NC(=O)Nc4cc(C(F)(F)F)cc(C(F)(F)F)c4)cc3)c(C)nc2cc1OCCN1CCCCC1 .
Response: 1 (yes)

Query: Hello, I am checking results. What call was entered for Cc1cc(N2CCCCC2)nc(N(CCNc2ccnc3cc(Cl)ccc23)Cc2ccccn2)n1 ?
Response: 0 (no)

Query: For Cc1cc(-c2noc(C(F)(F)F)n2)ccc1N1CCN(c2cc(C(=O)N(C)C)no2)CC1 , what call appears in the results of this test?
Response: 0 (no)

Query: Short answer needed: outcome of this test for COc1ccc(/C(C)=C(\c2ccc(Cl)cc2)c2ccc(OCCN3CCCCCC3)cc2)cc1F ?
Response: 0 (no)

Query: Given O=S(=O)(NCCNc1cc(-c2c(-c3cccc(O)c3)nc3sccn23)ccn1)c1ccc(Br)cc1 , state the outcome it received in this test.
Response: 0 (no)

Query: Outcome logged for CSc1nc2sc3cc(Cl)ccc3n2c(=N)c1C#N in this assay:
Response: 0 (no)

Query: Please share the test call associated with COc1cc2ccccc2cc1C(=O)NC(=S)Nc1ccc(-c2nc3ccccc3[nH]2)cc1 .
Response: 0 (no)

Query: Could you check what this test reported for CN1C[C@@H](c2ccc(Cl)cc2)[C@]2(NC(=S)N(c3ccccc3)C2=O)[C@@]12C(=O)NC1C=CC(Br)=C[C@H]12 (some centres undefined) ?
Response: 0 (no)

Query: Answer briefly: the call reported for O=C(Oc1ccc([N+](=O)[O-])cc1)c1ccc(CBr)cc1 in this assay.
Response: 0 (no)

Query: // return assay outcome for C[C@@H]1CC[C@@H]2[C@@H]1[C@H](OC(=O)c1ccc3ccccc3c1)[C@]1(C3CCCCC3)C[C@@H](OC(=O)CO)[C@@]2(C)O1
Response: 0 (no)
